# assayed.target: Recombinant human DDR2 (Homo sapiens (Human))
# test: LanthaScreen Eu Kinase Binding Assay, DDR2
# details: DDR2 1.75 nM (aa427-855, GST tag), Kinase Tracer 178 10 nM; read-out: DDR2 pIC50 (converted)
experimental.readout: IC50

Answered examples (5):
Cc1n[nH]c2cc(Nc3cccc4c3C(=O)N(CC(=O)N3CCO[C@H](C(F)(F)F)C3)C4)cnc12 [Example 69]: 100 to 1000 nM
Cc1n[nH]c2cc(Nc3cccc4c3C(=O)N(CC(=O)N3CCOC[C@@H]3C(F)(F)F)C4)cnc12 [Example 71]: 10 to 100 nM
O=C1c2c(cccc2Nc2cnc3[nH]ncc3c2)CN1CC(=O)N1CCC[C@H]1C(F)(F)F [Example 74]: < 10 nM
Cn1ncc2cc(Nc3cccc4c3C(=O)N(CC(=O)N3CCOC(C(F)(F)F)C3)C4)ccc21 (stereo not drawn) [Example 26]: 10 to 100 nM
CC(C)c1n[nH]c2cc(Nc3cccc4c3C(=O)N(CC(=O)NCC(F)(F)F)C4)ccc12 [Example 80]: 100 to 1000 nM

Asked: I have this compound here, Cn1ncc2cc(Nc3cccc4c3C(=O)N(CC(=O)NCC(F)(F)F)C4)ccc21 [Example 1] , and I need its recorded IC50.
Given back: 10 to 100 nM

Asked: I have this compound here, Cc1n[nH]c2cc(Nc3cccc4c3C(=O)N(CC(=O)Nc3cc(CN(C)C)cc(C(F)(F)F)c3)C4)ccc12 [Example 39] , and I need its recorded IC50.
Given back: 10 to 100 nM

Asked: I have this compound here, CN(c1ccc2c(cnn2C)c1)c1cccc2c1C(=O)N(CC(=O)NCC(F)(F)F)C2 [Example 8] , and I need its recorded IC50.
Given back: 10 to 100 nM

###

# assayed.target: Recombinant human DDR1 (Homo sapiens (Human))
# test: LanthaScreen Eu Kinase Binding Assay, DDR1
# details: DDR1 2.5 nM (aa440-876, GST tag), Kinase Tracer 178 5 nM
experimental.readout: DDR1 pIC50

Answered examples (7):
C[C@H](NC(=O)CN1Cc2cccc(Nc3cnc4c(cnn4C)c3)c2C1=O)C(F)(F)F: A (pIC50>8)
Cc1n[nH]c2cc(Nc3cccc4c3C(=O)N(CC(=O)N3CCC[C@H]3CF)C4)ccc12: A (pIC50>8)
CN(C)Cc1cc(NC(=O)CN2Cc3cccc(Nc4ccc5c(cnn5C)c4)c3C2=O)cc(C(F)(F)F)c1: A (pIC50>8)
O=C(CN1Cc2cccc(Nc3ccc4[nH]ncc4c3)c2C1=O)NCC(F)(F)F: A (pIC50>8)
CN(C)Cc1ccc(NC(=O)CN2Cc3cccc(Nc4ccc5c(cnn5C)c4)c3C2=O)cc1C(F)(F)F: A (pIC50>8)
C[C@H](NC(=O)CN1Cc2cccc(Nc3ccc4c(cnn4C)c3)c2C1=O)C(F)(F)F: A (pIC50>8)
Cn1ncc2cc(Nc3cccc4c3C(=O)N(CC(=O)NC3CC3(F)F)C4)ccc21 (centres unmarked): A (pIC50>8)

Now consider a different compound.
Asked: I have this compound here, "Cc1n[nH]c2cc(Nc3cccc4c3C(=O)N(CC(=O)NCC(F)(F)F)C4)cnc12" , and I need its recorded DDR1 pIC50.
Given back: A (pIC50>8)

###

# assayed.target: Recombinant human DDR1 (Homo sapiens (Human), UniProt Q08345)
# Sequence (Q08345 other isoform, or with tags, fused parts or gaps): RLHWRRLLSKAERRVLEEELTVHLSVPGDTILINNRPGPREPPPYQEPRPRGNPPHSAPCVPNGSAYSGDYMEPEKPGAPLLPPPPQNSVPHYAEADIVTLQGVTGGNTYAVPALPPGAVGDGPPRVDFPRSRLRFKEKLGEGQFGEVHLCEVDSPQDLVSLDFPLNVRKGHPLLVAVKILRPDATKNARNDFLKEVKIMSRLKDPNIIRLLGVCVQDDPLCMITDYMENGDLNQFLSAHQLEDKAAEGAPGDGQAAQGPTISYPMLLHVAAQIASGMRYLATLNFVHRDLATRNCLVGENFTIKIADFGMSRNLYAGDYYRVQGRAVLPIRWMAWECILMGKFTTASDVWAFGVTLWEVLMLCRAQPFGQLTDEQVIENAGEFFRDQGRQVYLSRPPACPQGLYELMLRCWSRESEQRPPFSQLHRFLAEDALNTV
# test: LanthaScreen Eu Kinase Binding Assay, DDR1
# details: DDR1 2.5 nM (aa440-876, GST tag), Kinase Tracer 178 5 nM; read-out: DDR1 pIC50 (converted)
experimental.readout: IC50

Answered examples (4):
Cn1ncc2cc(Nc3cccc4c3C(=O)N(CC(=O)NCC(F)(F)F)C4)ccc21 [Example 1]: < 10 nM
Cc1n[nH]c2cc(Nc3cccc4c3C(=O)N(CC(=O)N3CC(C(F)(F)F)C3)C4)ccc12 [Example 34]: 10 to 100 nM
Cn1ncc2cc(Nc3cccc4c3C(=O)N(CC(=O)NCC(F)(F)F)C4(F)F)ccc21 [Example 79]: 10 to 100 nM
Cc1nn(C)c2ncc(Nc3cccc4c3C(=O)N(CC(=O)N3CCC[C@H]3C(F)(F)F)C4)cc12 [Example 102]: 10 to 100 nM

Now consider a different compound.
Asked: I have this compound here, O=C(CN1Cc2cccc(Nc3cnc4[nH]ncc4c3)c2C1=O)NC1CC1(F)F (stereo not shown) [Example 75] , and I need its recorded IC50.
Given back: 10 to 100 nM

###

List of IC50 values.
# assayed.target: Recombinant human DDR2 (Homo sapiens (Human), UniProt Q16832)
# Sequence (Q16832 427-855): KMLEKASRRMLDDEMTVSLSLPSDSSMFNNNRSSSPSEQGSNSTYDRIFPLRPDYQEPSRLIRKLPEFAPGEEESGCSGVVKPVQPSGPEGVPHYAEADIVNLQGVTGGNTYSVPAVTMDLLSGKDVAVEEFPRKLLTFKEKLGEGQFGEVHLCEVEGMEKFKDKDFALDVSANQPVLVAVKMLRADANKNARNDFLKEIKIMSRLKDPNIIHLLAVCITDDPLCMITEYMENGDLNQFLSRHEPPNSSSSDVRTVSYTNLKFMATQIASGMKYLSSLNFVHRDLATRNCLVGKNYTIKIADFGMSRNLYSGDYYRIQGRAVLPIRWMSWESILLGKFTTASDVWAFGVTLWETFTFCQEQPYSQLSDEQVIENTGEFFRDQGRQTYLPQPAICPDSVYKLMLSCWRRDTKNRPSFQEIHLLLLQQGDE
# test: LanthaScreen Eu Kinase Binding Assay, DDR2
# details: DDR2 1.75 nM (aa427-855, GST tag), Kinase Tracer 178 10 nM; read-out: DDR2 pIC50 (converted)

CN(c1ccc2c(cnn2C)c1)c1cccc2c1C(=O)N(CC(=O)N1CCC[C@H]1C(F)F)C2: 10 to 100 nM
Cn1ncc2cc(Nc3cccc4c3C(=O)N(CC(=O)N3CCCC[C@H]3C(F)(F)F)C4)ccc21: < 10 nM

Asked: I have this molecule here, "Cc1n[nH]c2cc(Nc3cccc4c3C(=O)N(CC(=O)NCC(F)(F)F)C4)cnc12" , and I need its recorded IC50.
Given back: 10 to 100 nM

###

List of IC50 values.
# assayed.target: Recombinant human DDR2 (Homo sapiens (Human))
# test: LanthaScreen Eu Kinase Binding Assay, DDR2
# details: DDR2 1.75 nM (aa427-855, GST tag), Kinase Tracer 178 10 nM; read-out: DDR2 pIC50 (converted)

Cn1ncc2cc(Nc3cccc4c3C(=O)N(CC(=O)NCC(F)(F)F)C4)cnc21: 0.1 to 1 µM

Asked: I have this compound here, "O=C1c2c(cccc2Nc2ccc3[nH]nc(F)c3c2)CN1CC(=O)N1CCC[C@H]1C(F)(F)F" , and I need its recorded IC50.
Given back: 0.01 to 0.1 µM

Asked: I have this compound here, "Cn1ncc2cc(Nc3cccc4c3C(=O)N(CC(=O)N3CCC[C@H]3C(F)F)C4)ccc21" , and I need its recorded IC50.
Given back: < 0.01 µM

Asked: I have this compound here, "Cn1ncc2cc(Nc3cccc4c3C(=O)N(CC(=O)N3CCOC[C@@H]3C(F)(F)F)C4)ccc21" , and I need its recorded IC50.
Given back: 0.01 to 0.1 µM

Asked: I have this compound here, "C[C@H](NC(=O)CN1Cc2cccc(Nc3cnc4c(cnn4C)c3)c2C1=O)C(F)(F)F" , and I need its recorded IC50.
Given back: 0.01 to 0.1 µM

Asked: I have this compound here, "Cn1ncc2cc(Nc3cccc4c3C(=O)N(CC(=O)N3CCC[C@H]3CF)C4)cnc21" , and I need its recorded IC50.
Given back: 0.01 to 0.1 µM

Asked: I have this compound here, "CN(CC(F)(F)F)C(=O)CN1Cc2cccc(Nc3cnc4[nH]ncc4c3)c2C1=O" , and I need its recorded IC50.
Given back: 0.01 to 0.1 µM

Asked: I have this compound here, "CN(C)Cc1cc(NC(=O)CN2Cc3cccc(Nc4ccc5c(cnn5C)c4)c3C2=O)cc(C(F)(F)F)c1" , and I need its recorded IC50.
Given back: 0.01 to 0.1 µM

###

List of IC50 values.
# assayed.target: Recombinant human DDR2 (Homo sapiens (Human))
# test: LanthaScreen Eu Kinase Binding Assay, DDR2
# details: DDR2 1.75 nM (aa427-855, GST tag), Kinase Tracer 178 10 nM; read-out: DDR2 pIC50 (converted)

Answered examples (7):
Cn1ncc2cc(Nc3cccc4c3C(=O)N(CC(=O)Nc3cccc(C(C)(C)N)c3)C4)ccc21: 10 to 100 nM
O=C1c2c(cccc2Nc2ccc3[nH]ncc3n2)CN1CC(=O)N1CCC[C@H]1C(F)(F)F: 100 to 1000 nM
CN(c1cnc2[nH]ncc2c1)c1cccc2c1C(=O)N(CC(=O)NCC(F)(F)F)C2: 100 to 1000 nM
Cc1n[nH]c2cc(Nc3cccc4c3C(=O)N(CC(=O)N3CCOC[C@H]3C(F)(F)F)C4)cnc12: ≥ 1000 nM
Cn1ncc2cc(Nc3cccc4c3C(=O)N(CC(=O)N3CCO[C@H](C(F)(F)F)C3)C4)cnc21: 100 to 1000 nM
N#Cc1n[nH]c2ccc(Nc3cccc4c3C(=O)N(CC(=O)N3CCC[C@H]3C(F)(F)F)C4)cc12: ≥ 1000 nM
Cn1ncc2cc(Nc3cccc4c3C(=O)N(CC(=O)N3CCC[C@H]3C(F)(F)F)C4)ccc21: < 10 nM

Asked: I have this compound here, "CN(c1ccc2[nH]nc(F)c2c1)c1cccc2c1C(=O)N(CC(=O)N1CCC[C@H]1C(F)(F)F)C2" , and I need its recorded IC50.
Given back: 100 to 1000 nM

###

# assayed.target: Recombinant human DDR2 (Homo sapiens (Human))
# test: LanthaScreen Eu Kinase Binding Assay, DDR2
# details: DDR2 1.75 nM (aa427-855, GST tag), Kinase Tracer 178 10 nM
experimental.readout: DDR2 pIC50

Cn1ncc2cc(Nc3cccc4c3C(=O)N(CC(=O)Nc3cnoc3)C4)ccc21 [Example 4]: A (pIC50>8)
N#Cc1cc(Nc2cccc3c2C(=O)N(CC(=O)NCC(F)(F)F)C3)cc2cn[nH]c12 [Example 60]: A (pIC50>8)
Cn1ncc2cc(Nc3cccc4c3C(=O)N(CC(=O)N3CCC3C(F)(F)F)C4)ccc21 (stereo not shown) [Example 50]: A (pIC50>8)
